Tested on: WNK1;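 note: KINOMEscan kinase panel screen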
assay.conditions: concentration: 1 μM, replicates: in singlicate; n = 1
observed.property: %Inh (%)

molecule: Cc1cccc(-c2nc(Nc3cccc(C(N)=O)c3)c3ccccc3n2)n1 [GW876019]
endpoint.value: 0

molecule: COc1ccc(Nc2nccc(NCCNC(=O)Nc3ccccc3F)n2)cc1 [GSK1379901]
endpoint.value: 11

molecule: Fc1cc(Cl)ccc1Nc1ccnc2cc(-c3ccc(CN4CCCCC4)o3)ccc12 [GW560116]
endpoint.value: 0

molecule: O=C(Nc1n[nH]c2nc(-c3nccs3)c(Br)cc12)C1CC1 [SB-742251]
endpoint.value: 23

molecule: COc1cccc(-c2cc(-c3c[nH]nc3-c3ccccn3)ccn2)c1 [GW680338]
endpoint.value: 0

molecule: COc1ccc(C2=C(Nc3cccc(C(=O)O)c3)C(=O)NC2=O)cc1 [SB-390765]
endpoint.value: 49

molecule: COc1cc2ncn(-c3cc(OCC4CCCO4)c(C(N)=O)s3)c2cc1OC (centres unmarked) [GSK204607]
endpoint.value: 0

molecule: CC(=O)Nc1nc2cnc(Nc3cc(NC(=O)c4cccc(CCC#N)c4)ccc3C)nc2s1
endpoint.value: 0

molecule: Cn1ccc2ncnc(Oc3ccc(Nc4nc5ccccc5[nH]4)cc3)c21
endpoint.value: 0

molecule: CCn1c(-c2cccnc2O)nc2cnccc21 [SB-736715]
endpoint.value: 0

molecule: Cc1c(O)cccc1Nc1ccnc2ccc(C(F)(F)F)cc12.Cl [GW466413]
endpoint.value: 23

molecule: CC(C)(C)c1ccc(C(=O)Nc2cn3cc(-c4cccnc4)ccc3n2)cc1
endpoint.value: 0

molecule: C[C@@H]1CCCCN1c1cc(-c2ccc3c(N)n[nH]c3c2)nc(N)n1 [GSK2258759]
endpoint.value: 0

molecule: Cn1ccc2ncnc(Oc3cccc(C(=O)Nc4ccccc4)c3)c21
endpoint.value: 0

molecule: CS(=O)(=O)c1ccc(-c2nc3n(c2-c2ccncc2)CCC3)cc1 [SKF-105942]
endpoint.value: 0

molecule: Clc1cc(Cl)cc(Nc2ccnc(Nc3cc(Cl)cc(Cl)c3)n2)c1 [GSK175726]
endpoint.value: 0

molecule: O=C(Nc1n[nH]c2nc(-c3nccs3)c(Br)cc12)C1CCCC1 [SB-742609]
endpoint.value: 10

molecule: COC(=O)c1c(-c2ccccc2)c2cc(C(=O)O)ccc2c(=O)n1Cc1ccccc1
endpoint.value: 0

molecule: Cc1ccc(-c2cc(-c3c[nH]nc3-c3ccccn3)ccn2)cc1 [GW684088]
endpoint.value: 6

molecule: Fc1cc(Cl)ccc1Nc1ccnc2cc(I)ccc12 [GW551191]
endpoint.value: 3

molecule: Cc1ccc(C(=O)Nc2ccc(Nc3ccnc4cc(-c5ccccn5)ccc34)cc2O)cc1.Cl [GW440146]
endpoint.value: 10

molecule: COc1cc2ncnc(Nc3ccc4nc(-c5ccccc5)[nH]c4c3)c2cc1OC.Cl [GW282450]
endpoint.value: 10

molecule: Cc1cccc(-c2nc(Nc3ccncc3)c3ccccc3n2)n1 [GW855857]
endpoint.value: 0

molecule: NC(=O)c1nnc2ccccc2c1N
endpoint.value: 8

molecule: CC1=C(C(=O)Nc2cc3cn[nH]c3cc2F)C(c2ccc(C(F)(F)F)cc2)CC(=O)N1 (centres unmarked) [GSK429286]
endpoint.value: 20

molecule: COc1cccc(NC(=O)NC2CCN(c3ccnc(Nc4ccc(F)cc4)n3)C2)c1 (centres unmarked) [GSK1379721]
endpoint.value: 5

molecule: Cc1cc(NCC(c2ccccc2)c2ccccc2)nc(NCc2ccc(C(F)(F)F)cc2)n1 [GW497681]
endpoint.value: 0

molecule: O=c1cc(N2CCOCC2)nc2n(Cc3cccc(Cl)c3Cl)ccn12 [GSK2286295]
endpoint.value: 0

molecule: COc1cc2nccc(Nc3ccc(NC(=O)c4ccc(C)cc4)c(O)c3)c2cc1OC.Cl [GW440132]
endpoint.value: 7

molecule: CN1C(=O)C(Nc2ccc(Cl)c(C(=O)O)c2)=C(c2ccc(Cl)cc2)C1=O [SB-404290]
endpoint.value: 0

molecule: Cl.Oc1ccc(-c2nc(-c3ccccc3)[nH]c2-c2ccncc2)cc1 [SB-428218]
endpoint.value: 0

molecule: Cc1ccccc1-n1cnc2c(N)ncnc21 [SKF-97510]
endpoint.value: 0

molecule: CCn1c(-c2ccccn2)nc2cnccc21 [SB-736398]
endpoint.value: 0

molecule: O=C(Nc1ccc2c(c1)OCO2)NC1CCN(c2ccnc(Nc3ccc(F)cc3)n2)C1 (centres unmarked) [GSK1379724]
endpoint.value: 8

molecule: Cn1cncc1-c1ccc2ncnc(Nc3ccc(OCc4ccccc4)cc3)c2c1 [GW320571]
endpoint.value: 1

molecule: COC(=O)c1c(-c2ccccc2)c2cc(OC)ccc2c(=O)n1Cc1ccccc1
endpoint.value: 0

molecule: Cc1nnc(-c2ccc3occ(-c4ccc(S(C)=O)cc4)c3c2)[nH]1 (centres unmarked)
endpoint.value: 0

molecule: Nc1nc(-c2nccs2)c(-c2ccnc3ccccc23)s1 [GW693542]
endpoint.value: 20
